Hey, just so you know, these numbers are from the supplement of paper PMC4466140.

target.desc: AgNbp2
procedure.summary: SPOT peptide array binding signal intensity (averaged, normalized) (arbitrary units (background-subtracted, floor 0; scale differs between SH3 domains)); higher = stronger binding of the SH3 domain to the peptide
In this section we review reported SPOT peptide array binding signal intensity values for a set of binders.
Reply: number alone, nothing else.

binder=QNTPPLPPKPKSPHL measured_value=6.5
binder=TTNRGPPPLPPRANV measured_value=4.5
binder=QPQRTAPKPPISAPR measured_value=1510
binder=TKRKRPARLIFYDSK measured_value=236
binder=ITHRLRISIPGITGR measured_value=101

Given the entry `SRYRRPLTLLLLKPF` , report its measured SPOT peptide array binding signal intensity. 97.5
